Assay: Half life in Beagle dog at 0.5 mg/kg, iv administered as 1 hr infusion on day 1 and day 7 to achieve a target dose of 1 mg/kg by LC-MS/MS analysis
Format: ADME, organism-based, Canis lupus familiaris
Details: in vivo, dose 0.5-1 mg/kg, time 7 day
Reported Endpoint: half-life (min)

[P] CNC(=O)c1cc(C(=O)N[C@H]2[C@@H]3COC[C@@H]32)cc(Cc2cccc3[nH]ccc23)n1
[Q] CNC(=O)c1cc(C(=O)N[C@H]2C[C@@H]2C)cc([C@@H](O)c2ccccc2)n1
[R] CNC(=O)c1cc(C(=O)N[C@H]2[C@@H]3COC[C@@H]32)cc(C(OC)c2ccccc2)n1 (some centres not stated)
[S] CNC(=O)c1cc(C(=O)N[C@H]2[C@@H]3COC[C@@H]32)cc(Cc2ccccc2)n1
Order the above molecules by increasing half-life. Respond with an ordered listing of the labels, as requested.
S, Q, R, P
